Molecular target: Mu-type opioid receptor (Homo sapiens, UniProt P35372)
Sequence (P35372 whole entry): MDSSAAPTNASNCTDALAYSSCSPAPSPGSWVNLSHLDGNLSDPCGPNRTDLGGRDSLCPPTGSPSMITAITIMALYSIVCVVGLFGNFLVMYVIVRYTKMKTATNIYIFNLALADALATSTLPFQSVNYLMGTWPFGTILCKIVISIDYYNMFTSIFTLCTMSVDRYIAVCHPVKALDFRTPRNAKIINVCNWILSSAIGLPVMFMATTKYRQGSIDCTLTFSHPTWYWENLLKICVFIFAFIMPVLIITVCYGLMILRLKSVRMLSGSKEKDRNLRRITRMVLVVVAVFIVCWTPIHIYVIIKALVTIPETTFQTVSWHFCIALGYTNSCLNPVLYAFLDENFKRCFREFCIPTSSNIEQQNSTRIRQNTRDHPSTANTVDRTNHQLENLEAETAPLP
Assay: Agonist activity at human mu-opioid receptor expressed in HEK293 cell membranes after 1 hr by [35S]-GTPgammaS binding assay
Assay type: functional

SMILES_TEXT: O=C(N[C@@H]1CC[C@@]2(O)[C@H]3Cc4ccc(O)c5c4[C@@]2(CCN3CC2CC2)[C@H]1O5)c1ccc2ccccc2c1
EC50: 0.3 nM

###

Biological target: UniProt P35372
Assay: Agonist activity at human mu-opioid receptor expressed in HEK293 cells coexpressing delta6-Galphaqi4-myr assessed as induction of intracellular calcium flux after 48 hrs by FLIPR assay
Format: functional, cell-based

SMILES_TEXT: O=C(N[C@@H]1CC[C@@]2(O)[C@H]3Cc4ccc(O)c5c4[C@@]2(CCN3CC2CC2)[C@H]1O5)c1ccc2ccccc2c1
EC50: > 1 µM

Sourced from ChEMBL document CHEMBL4028804
